Data origin: paper PMC11480844

B1: H2-Kb / Ed33 (parent complex)
chain 1: SQLAEENSWALSVHEGESVTVNCSYKTSITALQWYRQKSGKGPAQLILIRSNEREKRNGRLRATLDTSSQSSSLSITATRCEDTAVYFCATDHNNAGAKLTFGGGTRLTVRP
chain 2: DAGVTQTPRHEVAEKGQTIILKCEPVSGHNDLFWYRQTKIQGLELLSYFRSKSLMEDGGAFKDRFKAEMLNSSFSTLKIQPTEPKDSAVYLCASSLYTNQAPLFGEGTRLSVL
chain 3: not shown
chain 4: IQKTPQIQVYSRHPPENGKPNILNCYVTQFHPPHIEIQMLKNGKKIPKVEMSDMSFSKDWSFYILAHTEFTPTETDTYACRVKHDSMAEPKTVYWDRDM
chain 5: SIINFEKL

Variants of: B1
test_summary: % of reporter cells activated (NFAT-GFP), raw; note: test concentration or dose not given here
attribute_measured: ratio to parent
Give bare numbers.

mutation_id	measured_value
chain 5 S1C	0.295
chain 5 I3T	1.04
chain 5 E6R	0.00434
chain 5 L8V	0.815
chain 5 I3G	1.03

For each of the items listed, what is its ratio to parent?
1. chain 5 I3Y
2. chain 5 I3S

0.0463
1.01
